molecular target: Recombinant Human FGFR2 alpha (IIIc) Fc Chimera Protein (Homo sapiens, UniProt P21802); construct: Fc (chimera); purchased R&D systems 712-FR-050; test: ELISA binding affinity of enzymatically synthesized peptide to FGFR; conditions: ELISA luminescence signal at 10 nmol/L peptide, SEQ ID NO: 47 at 10 nmol/L standardized to 1; enzyme synthesis product
Sequence (P21802 with tags, fused parts or gaps limits assumed): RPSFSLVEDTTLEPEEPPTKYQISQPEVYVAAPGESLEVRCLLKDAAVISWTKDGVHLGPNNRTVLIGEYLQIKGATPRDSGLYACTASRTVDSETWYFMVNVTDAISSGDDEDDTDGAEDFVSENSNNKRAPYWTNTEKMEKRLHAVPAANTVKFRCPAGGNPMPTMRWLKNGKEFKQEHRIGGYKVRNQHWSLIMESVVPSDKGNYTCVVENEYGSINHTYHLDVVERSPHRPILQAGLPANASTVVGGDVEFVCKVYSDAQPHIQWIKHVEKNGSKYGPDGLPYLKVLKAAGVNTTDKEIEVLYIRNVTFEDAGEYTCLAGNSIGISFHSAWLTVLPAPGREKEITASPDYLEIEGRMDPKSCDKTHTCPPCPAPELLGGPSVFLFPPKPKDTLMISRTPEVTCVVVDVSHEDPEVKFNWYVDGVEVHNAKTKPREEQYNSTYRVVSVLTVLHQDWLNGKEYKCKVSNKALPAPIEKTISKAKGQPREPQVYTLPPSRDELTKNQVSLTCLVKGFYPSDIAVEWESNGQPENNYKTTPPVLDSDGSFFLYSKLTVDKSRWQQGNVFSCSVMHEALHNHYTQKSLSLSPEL
Bridge positions count the residues as written; N and C are the ends. Ends that are not written are not given here. COCH2 = acetyl group that carries the bridge
readout-kind: Evaluation result of binding affinity to FGFR

In the examples that follow, each entry is paired with its recorded Evaluation result of binding affinity to FGFR.
- substance: "281 (YCEENYLDPEQYQYFYYFK(COCH2)Y; thioether 2-19) [compound 281]"
  assay-target: "Recombinant Human FGFR2 alpha (IIIc) Fc Chimera Protein (Homo sapiens, UniProt P21802)"
  measured-result: "A (0.7 or more)"
- substance: "349 (YCEMNYLDPEQYQYFIYFK(COCH2)Y; thioether 2-19) [compound 349]"
  assay-target: "Recombinant Human FGFR2 alpha (IIIc) Fc Chimera Protein (Homo sapiens, UniProt P21802)"
  measured-result: "A (0.7 or more)"
- substance: "81 (SCPQNFINPVQWRYFQHYK(COCH2)N; thioether 2-19 (inferred)) [compound 81]"
  assay-target: "Recombinant Human FGFR2 alpha (IIIc) Fc Chimera Protein (Homo sapiens, UniProt P21802)"
  measured-result: "A (0.7 or more)"
- substance: "296 (YCEENYLDPEQYQYFIFFK(COCH2)Y; thioether 2-19) [compound 296]"
  assay-target: "Recombinant Human FGFR2 alpha (IIIc) Fc Chimera Protein (Homo sapiens, UniProt P21802)"
  measured-result: "A (0.7 or more)"
- substance: "108 (LCRNYINPQQWRYFALYK(COCH2)Y; thioether 2-18 (inferred)) [compound 108]"
  assay-target: "Recombinant Human FGFR2 alpha (IIIc) Fc Chimera Protein (Homo sapiens, UniProt P21802)"
  measured-result: "A (0.7 or more)"

## Input Answer with the recorded Evaluation result of binding affinity to FGFR for the substance listed here: 345 (YCEENYLDPEQYQYFIKFK(COCH2)Y; thioether 2-19) [compound 345]
## Output A (0.7 or more)

## Input Answer with the recorded Evaluation result of binding affinity to FGFR for the substance listed here: 238 (YCEENYLDPLQYQYFIYFK(COCH2)Y; thioether 2-19 (inferred)) [compound 238]
## Output A (0.7 or more)

## Input Answer with the recorded Evaluation result of binding affinity to FGFR for the substance listed here: 61 (KCPQNFINPAQWRYFQHYK(COCH2)N; thioether 2-19 (inferred)) [compound 61]
## Output A (0.7 or more)
